Tested on: normal human lung fibroblasts
experimentalProtocol: Ribosomal profiling: translational efficiency in TGFβ-treated fibroblasts
Assay type: cell-based
conditionDescription: ENSG00000115267; TGFβ-treated fibroblasts
reportedEndpoint: renormalizing the translational profile of IFIH1

Here is how some compounds turned out for renormalizing the translational profile of IFIH1.
1) Cc1cc(C2CCCCC2)n(O)c(=O)c1.NCCO [CPX, ciclopirox oloamine] : − (− = <0.9)
2) COC(=O)[C@H]1[C@@H](O)[C@@]2(O)c3c(OC)cc(O[C@@H]4O[C@@H]([C@H](O)CO)CO[C@H]4OC)cc3O[C@@]2(c2ccc(OC)cc2)[C@@H]1c1ccccc1 [Silvestrol] : − (− = <0.9)
3) CC(C)n1nc(-c2cc3cc(O)ccc3[nH]2)c2c(N)ncnc21 [PP242] : + (+ = 0.9 to 1.5)
4) CC(C=CC(=O)NO)=CC(C)C(=O)c1ccc(N(C)C)cc1 (centres unmarked) [TSA] : − (− = <0.9)

Query: Entry Cc1ccc(=O)n(-c2ccccc2)c1 [pirfenidone, 5-methyl-1-phenylpyridin-2-one] has what renormalizing the translational profile of IFIH1?
Reply: + (+ = 0.9 to 1.5)
